target: Thyrotropin-releasing hormone receptor 2 (Rattus norvegicus); test: Displacement of [3H]3-methylhistidyl-TRH from rat recombinant TRHR2 expressed in […] cells
Sequence (A6IZR3 whole entry): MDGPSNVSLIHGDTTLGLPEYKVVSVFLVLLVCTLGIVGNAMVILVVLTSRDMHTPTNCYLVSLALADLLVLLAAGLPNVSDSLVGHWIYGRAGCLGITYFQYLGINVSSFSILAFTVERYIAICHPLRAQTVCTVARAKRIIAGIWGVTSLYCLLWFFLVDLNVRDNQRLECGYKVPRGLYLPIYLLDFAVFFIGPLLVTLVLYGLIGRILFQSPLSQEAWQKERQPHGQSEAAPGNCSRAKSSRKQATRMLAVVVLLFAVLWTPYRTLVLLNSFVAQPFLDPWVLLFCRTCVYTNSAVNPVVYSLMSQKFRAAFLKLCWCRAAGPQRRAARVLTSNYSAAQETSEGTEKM
Entries and their IC50
Form field: result (number plus unit)

molecule | measuredTarget | val
C[C@]1(CO)CCC[C@]2(CO)[C@H]3CCc4cocc4[C@]3(C)CC[C@@H]12 | Thyrotropin-releasing hormone receptor 2 (Rattus norvegicus) | 600 µM
CC1(C)CCC[C@]2(C)[C@H]3CCc4cocc4[C@]3(C)CC[C@@H]12 | Thyrotropin-releasing hormone receptor 2 (Rattus norvegicus) | 1000 µM

## Task I would be grateful if you could share the reported IC50 for `CC(=O)OC[C@@]1(C)CCC[C@]2(COC(C)=O)[C@H]3CCc4cocc4[C@]3(C)CC[C@@H]12` .
## Result 400 µM

## Task Dear colleague, I am looking for the recorded IC50 of the following molecule: `CC(=O)OC[C@]12CCC[C@](C)(CO)[C@@H]1CC[C@@]1(C)c3cocc3CC[C@H]21`
## Result 23 µM

## Task Reported IC50 for `CC(=O)OC[C@@]1(C)CCC[C@]2(CO)[C@H]3CCc4cocc4[C@]3(C)CC[C@@H]12` : what is it?
## Result 70 µM

## Task Suppose we examine the molecule NC(=O)[C@@H]1CCCN1C(=O)[C@H](Cc1cnc[nH]1)NC(=O)[C@@H]1CCC(=O)N1 [PROTIRELIN] ; what IC50 value has been reported?
## Result 0.023 µM
